Here, each record is paired with measured IN-GCN2 interaction (%) data.
# TESTED TARGET: IN-GCN2 interaction (6xHis-IN / GST-GCN2) (UniProt P04585+Q9P2K8)
# Sequence (Q9P2K8 192-1024, other chains not shown): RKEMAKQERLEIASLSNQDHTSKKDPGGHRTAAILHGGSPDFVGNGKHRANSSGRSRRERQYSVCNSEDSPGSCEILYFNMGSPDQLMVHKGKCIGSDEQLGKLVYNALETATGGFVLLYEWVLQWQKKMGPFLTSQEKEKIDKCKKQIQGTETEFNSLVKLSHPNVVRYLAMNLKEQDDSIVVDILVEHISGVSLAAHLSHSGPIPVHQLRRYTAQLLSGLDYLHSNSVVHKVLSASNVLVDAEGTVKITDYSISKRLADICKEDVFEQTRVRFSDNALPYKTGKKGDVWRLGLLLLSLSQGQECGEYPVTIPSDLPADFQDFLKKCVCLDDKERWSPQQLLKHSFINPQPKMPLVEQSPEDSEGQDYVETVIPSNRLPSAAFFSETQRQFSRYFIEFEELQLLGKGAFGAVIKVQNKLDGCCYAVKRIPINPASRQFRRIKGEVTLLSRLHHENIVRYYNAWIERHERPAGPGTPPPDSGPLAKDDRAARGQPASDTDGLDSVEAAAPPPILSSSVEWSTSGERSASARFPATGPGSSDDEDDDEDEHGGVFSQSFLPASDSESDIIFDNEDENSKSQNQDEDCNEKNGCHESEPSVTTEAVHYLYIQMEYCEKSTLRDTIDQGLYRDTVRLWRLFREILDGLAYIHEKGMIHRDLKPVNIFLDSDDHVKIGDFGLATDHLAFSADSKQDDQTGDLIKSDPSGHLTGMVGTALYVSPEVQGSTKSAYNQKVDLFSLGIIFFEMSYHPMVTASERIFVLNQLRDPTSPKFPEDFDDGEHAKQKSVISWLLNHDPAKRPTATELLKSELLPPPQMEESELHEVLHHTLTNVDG
# PROCEDURE DETAILS: biochemical
# Assay type: binding, HIV-1 IN; human GCN2
# MEASUREMENT SETUP: screen, single dose 100 µM, single replicate; residual AlphaLISA signal normalized to DMSO control
Don't forget the unit after the number, please.

Here are 5 molecules together with their reported answers.
MOLECULE	TESTED TARGET	IN-GCN2 interaction (%)
CO[C@@H]1/C=C/C=C(\C)Cc2cc(O)c(Cl)c(c2)N(C)C(=O)C[C@H](OC(=O)C(C)C)[C@]2(C)O[C@H]2[C@H](C)[C@@H]2C[C@@]1(O)NC(=O)O2	IN-GCN2 interaction (6xHis-IN / GST-GCN2) (UniProt P04585+Q9P2K8)	97.15%
COc1ccc(-c2oc3cc(O)c(OC)c(O)c3c(=O)c2OC)cc1O	IN-GCN2 interaction (6xHis-IN / GST-GCN2) (UniProt P04585+Q9P2K8)	98.61%
COc1cc([C@@H]2c3cc4c(cc3C[C@H]3COC(=O)[C@@H]32)OCO4)cc(OC)c1OC	IN-GCN2 interaction (6xHis-IN / GST-GCN2) (UniProt P04585+Q9P2K8)	91.16%
CC1(C)C(=O)N2c3ccccc3C3(CC(N4C(=O)c5ccccc5C4=O)C(=O)O3)C2N1C(=O)OCc1ccccc1 (stereo not shown)	IN-GCN2 interaction (6xHis-IN / GST-GCN2) (UniProt P04585+Q9P2K8)	53.34%
CC(C)=CCCC(C)C1=C(O)C(=O)C(C)=CC1=O (stereo not shown)	IN-GCN2 interaction (6xHis-IN / GST-GCN2) (UniProt P04585+Q9P2K8)	50.48%

Requested read-out: IN-GCN2 interaction (%). Entry: `CC(=O)C(=O)N[C@@H]1/C=C(C)/C=C/[C@@H](O)C/C=C(C)/C=C/[C@@H](O)C[C@H]2OC(=O)[C@]1(C)C(=O)[C@@H]2C`
98.66%

What about COc1cc2oc3cc(=O)cc4oc(-c5ccccc5)cc(c2c2c1CCC(c1ccccc1)O2)c43 (stereo not shown) ?
71.04%
